Assayed System: T1, Cynomolgus CTGF-Fc (fusion protein of cynomolgus CTGF coding region with Fc) (cynomolgus)
T1 construct: also called cyno-CTGF-mFc protein; cyno-CTGF protein with Fc tag
T1 sequence (chain, as listed by the source limits assumed): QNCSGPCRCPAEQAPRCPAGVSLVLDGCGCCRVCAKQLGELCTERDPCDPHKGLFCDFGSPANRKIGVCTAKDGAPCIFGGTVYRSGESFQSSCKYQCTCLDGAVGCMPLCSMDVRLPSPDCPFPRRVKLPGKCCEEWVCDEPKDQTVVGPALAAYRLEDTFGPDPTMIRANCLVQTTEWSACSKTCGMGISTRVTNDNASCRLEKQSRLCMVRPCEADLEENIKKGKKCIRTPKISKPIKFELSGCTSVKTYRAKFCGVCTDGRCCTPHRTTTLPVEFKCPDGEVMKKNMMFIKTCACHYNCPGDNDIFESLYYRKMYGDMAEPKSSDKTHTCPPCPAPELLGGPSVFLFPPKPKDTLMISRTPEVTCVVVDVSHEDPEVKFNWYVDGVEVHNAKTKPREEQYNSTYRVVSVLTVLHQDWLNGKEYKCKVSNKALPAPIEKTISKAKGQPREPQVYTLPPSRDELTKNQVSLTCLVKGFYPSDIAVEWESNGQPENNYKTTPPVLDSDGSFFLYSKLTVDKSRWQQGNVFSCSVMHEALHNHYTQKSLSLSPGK
Method Notes: ELISA, cyno-CTGF-Fc captured by anti-mFc
Endpoint: EC50 (nM)
Give the value, in units of nM, as a plain number.

// known answers, use as guide
Binder: Hu164-69wl (antibody, human IgG1, lambda, V domains shown) VH: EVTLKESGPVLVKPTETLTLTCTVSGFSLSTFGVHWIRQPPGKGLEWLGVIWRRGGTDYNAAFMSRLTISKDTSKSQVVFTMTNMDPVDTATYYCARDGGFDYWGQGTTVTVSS VL: ESVVTQPPSVSGAPGQRVTISCRSSIGAVTTSNYANWVQQLPGTAFKGLIGGTSNRAPGVPDRFSGSKSGTSASLAITGLQAEDEADYYCALWYSTHYVFGGGTKLTVLG
EC50 (nM): 0.032
--
Binder: Hu147-15wk (antibody, human IgG1, kappa, V domains shown) VH: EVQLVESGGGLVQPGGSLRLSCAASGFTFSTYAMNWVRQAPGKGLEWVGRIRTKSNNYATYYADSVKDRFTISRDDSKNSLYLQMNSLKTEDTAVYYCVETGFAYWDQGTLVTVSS VL: DIQLTQSPSSLSASVGDRVTITCSASSSVSYMHWFQQKPGKSPKLWIYSTSNLASGVPSRFSGSGSGTDYTLTISSLQPEDFATYYCQQRSSYPLTFGQGTKLEIKR
EC50 (nM): 0.053
--
Binder: Hu147-34wk (antibody, human IgG1, kappa, V domains shown) VH: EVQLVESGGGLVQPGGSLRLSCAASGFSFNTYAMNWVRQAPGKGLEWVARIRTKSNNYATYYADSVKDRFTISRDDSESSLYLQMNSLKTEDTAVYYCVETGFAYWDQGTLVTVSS VL: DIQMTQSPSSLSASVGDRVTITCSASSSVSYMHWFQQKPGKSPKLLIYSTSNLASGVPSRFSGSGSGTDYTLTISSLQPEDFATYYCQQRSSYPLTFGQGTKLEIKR
EC50 (nM): 0.144
--
Binder: Hu147-23wk (antibody, human IgG1, kappa, V domains shown) VH: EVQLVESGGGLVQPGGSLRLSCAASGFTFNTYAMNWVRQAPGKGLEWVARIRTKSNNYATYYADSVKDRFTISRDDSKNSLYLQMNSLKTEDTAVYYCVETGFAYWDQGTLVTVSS VL: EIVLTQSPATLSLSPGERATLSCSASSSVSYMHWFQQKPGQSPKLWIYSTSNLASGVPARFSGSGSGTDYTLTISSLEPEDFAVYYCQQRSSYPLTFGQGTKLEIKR
EC50 (nM): 0.063
--
Binder: Hu147-33wk (antibody, human IgG1, kappa, V domains shown) VH: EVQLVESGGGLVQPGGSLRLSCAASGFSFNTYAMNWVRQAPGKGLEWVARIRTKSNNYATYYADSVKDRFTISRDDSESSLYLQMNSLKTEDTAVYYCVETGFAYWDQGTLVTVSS VL: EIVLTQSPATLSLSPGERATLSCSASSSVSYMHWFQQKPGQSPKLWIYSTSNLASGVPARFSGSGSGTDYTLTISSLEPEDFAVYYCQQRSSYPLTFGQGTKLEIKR
EC50 (nM): 0.044
--
Binder: Hu147-21wk (antibody, human IgG1, kappa, V domains shown) VH: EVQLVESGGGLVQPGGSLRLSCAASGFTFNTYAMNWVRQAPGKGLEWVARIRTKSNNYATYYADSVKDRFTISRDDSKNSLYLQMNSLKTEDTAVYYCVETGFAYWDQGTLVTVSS VL: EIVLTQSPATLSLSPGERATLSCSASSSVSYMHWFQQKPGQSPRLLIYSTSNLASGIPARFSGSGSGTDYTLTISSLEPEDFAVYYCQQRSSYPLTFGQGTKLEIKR
EC50 (nM): 0.053
--
Binder: Hu164-77wl (antibody, human IgG1, lambda, V domains shown) VH: EVQLQESGPGLVKPSQTLSLTCTVSGFSISTFGVHWIRQHPGKGLEWIGVIWRRGGTDYNAAFMSRVTISKDTSKNQVSLKLSSVTAADTAVYYCARDGGFDYWGQGTTVTVSS VL: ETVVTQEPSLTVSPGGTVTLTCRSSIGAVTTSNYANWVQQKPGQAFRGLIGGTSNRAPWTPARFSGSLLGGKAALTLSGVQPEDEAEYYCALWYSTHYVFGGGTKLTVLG
EC50 (nM): 0.038
--
Binder: Hu147-11wk (antibody, human IgG1, kappa, V domains shown) VH: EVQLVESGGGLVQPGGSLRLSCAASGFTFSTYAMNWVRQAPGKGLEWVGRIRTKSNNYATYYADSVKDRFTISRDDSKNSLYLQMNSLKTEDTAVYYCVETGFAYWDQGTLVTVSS VL: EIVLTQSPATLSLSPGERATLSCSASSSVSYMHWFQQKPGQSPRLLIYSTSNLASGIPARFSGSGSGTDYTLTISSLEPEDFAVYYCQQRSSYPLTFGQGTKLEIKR
EC50 (nM): 0.052

Look up and state reported EC50 for Hu147-32wk (antibody, human IgG1, kappa, V domains shown) VH: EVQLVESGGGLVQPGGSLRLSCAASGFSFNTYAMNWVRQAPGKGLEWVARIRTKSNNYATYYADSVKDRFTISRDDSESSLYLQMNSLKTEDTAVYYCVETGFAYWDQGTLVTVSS VL: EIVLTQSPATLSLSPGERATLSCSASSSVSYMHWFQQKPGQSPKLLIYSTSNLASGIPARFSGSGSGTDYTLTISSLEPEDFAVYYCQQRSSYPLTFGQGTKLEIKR
0.079

Kindly indicate its recorded EC50. Item: positive control CTGF antibody mAb1 (antibody, V domains shown, Positive control, from CN1829740B; also called pamrevlumab; FG-3019) VH: EGQLVQSGGGLVHPGGSLRLSCAGSGFTFSSYGMHWVRQAPGKGLEWVSGIGTGGGTYSTDSVKGRFTISRDNAKNSLYLQMNSLRAEDMAVYYCARGDYYGSGSFFDCWGQGTLVTVSS VL: DIQMTQSPSSLSASVGDRVTITCRASQGISSWLAWYQQKPEKAPKSLIYAASSLQSGVPSRFSGSGSGTDFTLTISSLQPEDFATYYCQQYNSYPPTFGQGTKLEIKR
0.086

meta.source: patent US20220324953A1
